Target: MAP2K1 (human) (UniProt Q02750)
Sequence (Q02750 whole entry, looked up): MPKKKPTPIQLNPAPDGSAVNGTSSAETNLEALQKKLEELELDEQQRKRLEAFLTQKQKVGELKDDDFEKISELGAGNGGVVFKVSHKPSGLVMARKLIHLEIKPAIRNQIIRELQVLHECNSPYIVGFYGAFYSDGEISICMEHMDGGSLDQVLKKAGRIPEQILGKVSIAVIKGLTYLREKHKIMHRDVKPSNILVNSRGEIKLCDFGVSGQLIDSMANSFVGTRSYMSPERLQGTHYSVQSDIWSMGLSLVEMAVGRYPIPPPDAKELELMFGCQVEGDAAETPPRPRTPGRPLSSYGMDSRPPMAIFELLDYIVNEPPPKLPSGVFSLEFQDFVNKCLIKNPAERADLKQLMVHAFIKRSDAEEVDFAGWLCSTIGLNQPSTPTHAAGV
Assay: KINOMEscan competition binding
Conditions: compound 10.0 µM
Endpoint label: kinase still bound, per cent of control (%)

* C[C@@H](Oc1cc(-n2cnc3ccc(CN4CCN(C)CC4)cc32)sc1C(N)=O)c1ccccc1C(F)(F)F | 92
* CN(C)C/C=C/C(=O)Nc1cccc(Nc2ncc3c(n2)N(C)c2ccccc2C(=O)N3C)c1 | 82
* C=CC(=O)Nc1cccc(Oc2nc(Nc3ccc(N4CCN(C)CC4)cc3OC)ncc2Cl)c1 | 100
* COc1cc(C(=O)NC2CCN(C)CC2)ccc1Nc1ncc2c(n1)N(C1CCCC1)C(C)CC(=O)N2C (stereo not given) | 100
* Cc1ccc2nc(NCCN)c3ncc(C)n3c2c1 | 100

====

Listing of entries alongside the reported kinase still bound, per cent of control.
System: EGFR (human), P00533 [G719S]
Test: KINOMEscan competition binding
Conditions: compound 10.0 µM
Endpoint label: kinase still bound, per cent of control (%)

• C=CC(=O)Nc1cccc(Nc2nc(N[C@H]3CC[C@H](N(C)C)CC3)nc3c2ncn3C(C)C)c1 = 98
• COc1cc(C(=O)N2CCC(N3CCN(C)CC3)CC2)ccc1Nc1ncc2c(n1)N(C)c1ccccc1C(=O)N2C = 86
• CNC(=O)Nc1ccc(-c2nc(N3CC4CCC(C3)O4)c3cnn(C4CCC5(CC4)OCCO5)c3n2)cc1 = 69
• Cn1c(=O)n(-c2ccc(C(C)(C)C#N)cc2)c2c3cc(-c4cnc5ccccc5c4)ccc3ncc21 = 100
• COc1cc(N2CCN(C)CC2)ccc1Nc1ncc2c(n1)N(C)c1ccccc1C(=O)N2C = 100
• O=C(Nc1cccc(Nc2ncc(Br)c(NCCc3cnc[nH]3)n2)c1)N1CCCC1 = 51
• Cc1ccc(C(=O)Nc2cccc(C(F)(F)F)c2)cc1Nc1cncc(C(N)=O)c1 = 100
• CCN1CCN(C(=O)Cc2ccc(Nc3ncc(F)c(Nc4ccc(C(=O)Nc5ccccc5Cl)cc4)n3)cc2)CC1 = 78
• CN(C)C/C=C/C(=O)Nc1cccc(Nc2ncc3c(n2)N(C)c2ccccc2C(=O)N3C)c1 = 67
• COc1cc(C(=O)NC2CCN(C)CC2)ccc1Nc1ncc2c(n1)N(C1CCCC1)C(C)CC(=O)N2C (configuration not stated) = 100
• O=C1NC(=O)/C(=C/c2ccc3nccc(-c4ccncc4)c3c2)S1 = 78
• C=CC(=O)Nc1cccc(Oc2nc(Nc3ccc(N4CCN(C)CC4)cc3OC)ncc2Cl)c1 = 0.3
• C=CC(=O)Nc1cc(-n2c(=O)ccc3cnc4ccc(-c5cn[nH]c5)cc4c32)ccc1C = 79
• C=CC(=O)Nc1cc(NC(=O)c2ccc(C)c(NC(=O)c3ccno3)c2)cc(C(F)(F)F)c1 = 100
• CCN1CCN(Cc2ccc(NC(=O)c3ccc(C)c(/C=C/c4cnc5[nH]ccc5c4OC)c3)cc2C(F)(F)F)CC1 = 0
• COc1cc(N2CCC(C(N)=O)CC2)ccc1Nc1nc(N)c(Cl)c(Nc2ccccc2S(=O)(=O)C(C)C)n1 = 21
• N#CCNC(=O)c1ccc(-c2ccnc(Nc3ccc(N4CCOCC4)cc3)n2)cc1 = 79
• COc1ccc(N(C(=O)Oc2c(C)cccc2C)c2ccnc(Nc3ccc(N4CCN(C)CC4)cc3)n2)c(OC)c1 = 0.45
• COc1cc2ncn(-c3cc(OCc4ccccc4C(F)(F)F)c(C(N)=O)s3)c2cc1OC = 98
• COc1cc(C(=O)NC2CCN(C)CC2)ccc1Nc1ncc2c(n1)N(C1CCCC1)CCC(=O)N2C(C)C = 100
• COc1cc(C)c(Sc2cnc(NC(=O)c3ccc(CNC(C)C(C)C)cc3)s2)cc1C(=O)N1CCN(C(C)=O)CC1 (configuration not stated) = 100
• Cc1ccc2nc(NCCN)c3ncc(C)n3c2c1 = 100
• O=c1[nH]c2ccccc2n1C1CCN(Cc2ccc(-c3nc4cc5[nH]cnc5cc4nc3-c3ccccc3)cc2)CC1 = 83
• CS(=O)(=O)N1CCN(Cc2cc3nc(-c4cccc5[nH]ncc45)nc(N4CCOCC4)c3s2)CC1 = 100
• COc1cc(N2CCN(C)CC2)ccc1Nc1nc(N)c(C(=O)c2c(Cl)cccc2Cl)s1 = 88
• COc1cc2ncnc(-n3nc(-c4ccccn4)nc3N)c2cc1OC = 57
• CCCS(=O)(=O)Nc1ccc(F)c(C(=O)c2c[nH]c3ncc(-c4ccc(Cl)cc4)cc23)c1F = 50
• OCCCNc1cc(-c2ccnc(Nc3cccc(Cl)c3)n2)ccn1 = 100
• C=CC(=O)Nc1ccc(C(=O)c2sc(Nc3ccc(N4CCN(C)CC4)cc3OC)nc2N)cc1 = 52
• COc1ccc(N(C(=O)Oc2cc(C(=O)Nc3cccc(C(F)(F)F)c3)ccc2C)c2ccnc(Nc3ccc(N4CCN(C)CC4)cc3)n2)c(OC)c1 = 18
• O=c1cc(N2CCOCC2)oc2c(-c3cccc4c3sc3ccccc34)cccc12 = 100
• COc1cc2c(Nc3ccc(NC(=O)c4ccccc4)cc3)ncnc2cc1OCCCN1CCOCC1 = 0.5
• CN(C)C/C=C/C(=O)Nc1ccc(C(=O)Nc2cccc(Nc3nccc(-c4cccnc4)n3)c2)cc1 = 97
• CCCS(=O)(=O)Nc1ccc(F)c(C(=O)c2c[nH]c3ncc(Cl)cc23)c1F = 72
• O=C1Nc2ccc(I)cc2/C1=C/c1cc(Br)c(O)c(Br)c1 = 84
• NC(=O)Nc1cc(-c2cccc(F)c2)sc1C(=O)N[C@@H]1CCCNC1 = 0
• CNC(=O)c1ccc(Nc2cc(Nc3ccccc3S(=O)(=O)C(C)C)c3cc[nH]c3n2)nc1 = 100
